Reported pIC50 values are given for each entry in this list.
tested_target: Cholinesterase (Homo sapiens)
Sequence (P06276 whole entry): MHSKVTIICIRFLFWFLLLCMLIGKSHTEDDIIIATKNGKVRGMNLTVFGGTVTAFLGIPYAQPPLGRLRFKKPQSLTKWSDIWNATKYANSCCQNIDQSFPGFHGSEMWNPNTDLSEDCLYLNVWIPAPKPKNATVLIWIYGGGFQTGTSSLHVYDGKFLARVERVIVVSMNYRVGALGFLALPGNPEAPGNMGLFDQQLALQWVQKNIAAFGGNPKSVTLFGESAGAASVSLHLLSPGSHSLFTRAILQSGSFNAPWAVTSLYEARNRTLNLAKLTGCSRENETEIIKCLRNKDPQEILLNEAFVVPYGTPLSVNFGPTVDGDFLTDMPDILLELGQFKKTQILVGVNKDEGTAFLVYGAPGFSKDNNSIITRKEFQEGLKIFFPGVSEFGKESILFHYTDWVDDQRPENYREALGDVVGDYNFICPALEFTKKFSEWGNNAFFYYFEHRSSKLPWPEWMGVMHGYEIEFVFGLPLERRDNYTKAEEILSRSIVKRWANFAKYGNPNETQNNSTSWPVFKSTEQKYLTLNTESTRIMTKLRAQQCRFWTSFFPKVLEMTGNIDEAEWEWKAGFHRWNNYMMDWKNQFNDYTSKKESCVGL
assay_details: Inhibition of isolated human BuChE
pIC50: −log10 of the molar value.

# structure_smiles_string, pIC50
rows = [
    ("CNC(=O)Oc1cccc(CN(C)CCCOc2ccc3c(c2)O/C(=C\\c2ccc4ccccc4c2)C3=O)c1", 7.15),
    ("CNC(=O)Oc1cccc(CN(C)CCCCCCCOc2ccc3c(c2)O/C(=C\\c2ccccc2)C3=O)c1", 7.24),
    ("CNC(=O)Oc1cccc(CN(C)CCCCCCCOc2ccc3c(c2)O/C(=C\\c2cccc4ccccc24)C3=O)c1", 7.40),
    ("CNC(=O)Oc1cccc(CN(C)CCCCCCCOc2ccc3c(c2)O/C(=C\\c2c4ccccc4cc4ccccc24)C3=O)c1", 6.12),
    ("CNC(=O)Oc1cccc(CN(C)CCCOc2ccc3c(c2)O/C(=C\\c2cc(OC)c(OC)c(OC)c2)C3=O)c1", 6.81),
    ("CNC(=O)Oc1cccc(CN(C)CCCCCCCOc2ccc3c(c2)OC/C(=C\\c2cc(OC)c(OC)c(OC)c2)C3=O)c1", 6.82),
    ("CNC(=O)Oc1cccc(CN(C)CCCCCCCOc2ccc3c(c2)O/C(=C\\c2ccc(Cl)c(Cl)c2)C3=O)c1", 7.02),
    ("CNC(=O)Oc1cccc(CN(C)CCCCCCCOc2ccc3c(c2)O/C(=C\\c2cc(Cl)cc(Cl)c2)C3=O)c1", 6.89),
]

====

Reported pIC50 values are given for each entry in this list.
tested_target: Acetylcholinesterase (Homo sapiens, UniProt P22303)
Sequence (P22303 whole entry): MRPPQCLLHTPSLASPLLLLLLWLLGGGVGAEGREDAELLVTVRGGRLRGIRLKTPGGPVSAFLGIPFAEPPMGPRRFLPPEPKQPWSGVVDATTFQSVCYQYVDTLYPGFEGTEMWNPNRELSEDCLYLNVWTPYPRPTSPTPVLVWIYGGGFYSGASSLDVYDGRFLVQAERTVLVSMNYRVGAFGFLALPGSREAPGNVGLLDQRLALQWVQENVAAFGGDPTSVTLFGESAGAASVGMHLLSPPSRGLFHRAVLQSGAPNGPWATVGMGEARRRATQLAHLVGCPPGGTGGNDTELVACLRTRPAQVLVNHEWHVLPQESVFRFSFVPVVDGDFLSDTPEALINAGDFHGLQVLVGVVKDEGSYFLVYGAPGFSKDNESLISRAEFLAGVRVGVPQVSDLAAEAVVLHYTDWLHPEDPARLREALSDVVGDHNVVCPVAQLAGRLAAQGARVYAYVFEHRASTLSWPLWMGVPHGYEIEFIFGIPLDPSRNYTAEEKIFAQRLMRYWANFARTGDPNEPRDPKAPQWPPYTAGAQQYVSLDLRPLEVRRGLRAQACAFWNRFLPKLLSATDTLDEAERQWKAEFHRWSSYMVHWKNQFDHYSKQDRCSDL
assay_details: Inhibition of recombinant human AChE
pIC50: −log10 of the molar value.
measured_quantity: pIC50

# structure_smiles_string, tested_target, reading
records = [
    ("CNC(=O)Oc1cccc(CN(C)CCCOc2ccc3c(c2)O/C(=C\\c2cccc4ccccc24)C3=O)c1", "Acetylcholinesterase (Homo sapiens, UniProt P22303)", 8.16),
    ("CNC(=O)Oc1cccc(CN(C)CCCCCCCOc2ccc3c(c2)O/C(=C\\c2cccc4ccccc24)C3=O)c1", "Acetylcholinesterase (Homo sapiens, UniProt P22303)", 8.56),
    ("CNC(=O)Oc1cccc(CN(C)CCCCCCCOc2ccc3c(c2)O/C(=C\\c2c4ccccc4cc4ccccc24)C3=O)c1", "Acetylcholinesterase (Homo sapiens, UniProt P22303)", 7.10),
    ("CNC(=O)Oc1cccc(CN(C)CCCCCCCOc2ccc3c(c2)O/C(=C\\c2cc(OC)c(OC)c(OC)c2)C3=O)c1", "Acetylcholinesterase (Homo sapiens, UniProt P22303)", 9.28),
    ("CNC(=O)Oc1cccc(CN(C)CCCOc2ccc3c(c2)O/C(=C\\c2cc(OC)c(OC)c(OC)c2)C3=O)c1", "Acetylcholinesterase (Homo sapiens, UniProt P22303)", 8.52),
    ("CNC(=O)Oc1cccc(CN(C)CCCCCCCOc2ccc3c(c2)CC/C(=C\\c2cc(OC)c(OC)c(OC)c2)C3=O)c1", "Acetylcholinesterase (Homo sapiens, UniProt P22303)", 8.31),
    ("CNC(=O)Oc1cccc(CN(C)CCCCCCCOc2ccc3c(c2)O/C(=C\\c2ccc(Cl)c(Cl)c2)C3=O)c1", "Acetylcholinesterase (Homo sapiens, UniProt P22303)", 8.10),
    ("CNC(=O)Oc1cccc(CN(C)CCCCCCCOc2ccc3c(c2)OC/C(=C\\c2cc(OC)c(OC)c(OC)c2)C3=O)c1", "Acetylcholinesterase (Homo sapiens, UniProt P22303)", 8.01),
]

====

tested_target: Cholinesterases; ACHE & BCHE (Homo sapiens) (UniProt P06276+P22303)
Sequence (P06276 whole entry, looked up, one chain of several): as the sequence (P06276 whole entry) above
assay_details: Ratio of IC50 for human BuChE and AChE
Type: protein assay
Reported Ratio values are given for each entry in this list.

# structure_smiles_string, tested_target, Ratio
data = [
    ("CNC(=O)Oc1cccc(CN(C)CCCCCCCOc2ccc3c(c2)O/C(=C\\c2ccc(Cl)c(Cl)c2)C3=O)c1", "Cholinesterases; ACHE & BCHE (Homo sapiens) (UniProt P06276+P22303)", 11.8),
    ("CNC(=O)Oc1cccc(CN(C)CCCCCCCOc2ccc3c(c2)O/C(=C\\c2cccc4ccccc24)C3=O)c1", "Cholinesterases; ACHE & BCHE (Homo sapiens) (UniProt P06276+P22303)", 14.5),
    ("CNC(=O)Oc1cccc(CN(C)CCCCCCCOc2ccc3c(c2)O/C(=C\\c2c4ccccc4cc4ccccc24)C3=O)c1", "Cholinesterases; ACHE & BCHE (Homo sapiens) (UniProt P06276+P22303)", 9.6),
    ("CNC(=O)Oc1cccc(CN(C)CCCCCCCOc2ccc3c(=O)c4ccccc4oc3c2)c1", "Cholinesterases; ACHE & BCHE (Homo sapiens) (UniProt P06276+P22303)", 51.6),
    ("CNC(=O)Oc1cccc(CN(C)CCCCCCCOc2ccc3c(c2)CC/C(=C\\c2cc(OC)c(OC)c(OC)c2)C3=O)c1", "Cholinesterases; ACHE & BCHE (Homo sapiens) (UniProt P06276+P22303)", 17.1),
    ("CNC(=O)Oc1cccc(CN(C)CCCCCCCOc2ccc3c(c2)O/C(=C\\c2cc(OC)c(OC)c(OC)c2)C3=O)c1", "Cholinesterases; ACHE & BCHE (Homo sapiens) (UniProt P06276+P22303)", 261),
    ("CNC(=O)Oc1cccc(CN(C)CCCCCCCOc2ccc3c(c2)O/C(=C\\c2ccccc2)C3=O)c1", "Cholinesterases; ACHE & BCHE (Homo sapiens) (UniProt P06276+P22303)", 29.7),
]

====

Reported inhibition values are given for each entry in this list.
tested_target: UniProt:P22303
assay_details: Inhibition of human AChE induced beta-amyloid aggregation in thioflavin T-based fluorometric assay
Assay type: functional
Design: concentration or dose not given beside the values
experimental_conditions: concentration not given here
measured_quantity: inhibition (%)

# structure_smiles_string, measured_quantity, reading_unit, comparison_operator, reading
data = [
    ("CNC(=O)Oc1cccc(CN(C)CCCCCCCOc2ccc3c(c2)OCC3=O)c1", "inhibition", "%", "=", 17.5),
    ("CNC(=O)Oc1cccc(CN(C)CCCOc2ccc3c(=O)c4ccccc4oc3c2)c1", "inhibition", "%", "<", 10),
    ("CN(CCCCCCCOc1ccc2c(c1)O/C(=C\\c1cccc3ccccc13)C2=O)Cc1cccc(O)c1", "inhibition", "%", "=", 49.5),
    ("CNC(=O)Oc1cccc(CN(C)CCCCCCCOc2ccc3c(c2)OC/C(=C\\c2cc(OC)c(OC)c(OC)c2)C3=O)c1", "inhibition", "%", "=", 45.3),
    ("CNC(=O)Oc1cccc(CN(C)CCCOc2ccc3c(c2)O/C(=C\\c2cccc4ccccc24)C3=O)c1", "inhibition", "%", "=", 37.2),
    ("CNC(=O)Oc1cccc(CN(C)CCCCCCCOc2ccc3c(c2)O/C(=C\\c2cccc4ccccc24)C3=O)c1", "inhibition", "%", "=", 66.7),
    ("CNC(=O)Oc1cccc(CN(C)CCCCCCCOc2ccc3c(c2)O/C(=C\\c2ccc(Cl)c(Cl)c2)C3=O)c1", "inhibition", "%", "=", 49.1),
    ("CNC(=O)Oc1cccc(CN(C)CCCCCCCOc2ccc3c(c2)CC/C(=C\\c2cc(OC)c(OC)c(OC)c2)C3=O)c1", "inhibition", "%", "=", 33.3),
    ("CNC(=O)Oc1cccc(CN(C)CCCCCCCOc2ccc3c(c2)O/C(=C\\c2c4ccccc4cc4ccccc24)C3=O)c1", "inhibition", "%", "=", 65.3),
    ("CNC(=O)Oc1cccc(CN(C)CCCCCCCOc2ccc3c(c2)O/C(=C\\c2cc(Cl)cc(Cl)c2)C3=O)c1", "inhibition", "%", "=", 47.6),
    ("CNC(=O)Oc1cccc(CN(C)CCCCCCCOc2ccc3c(=O)c4ccccc4oc3c2)c1", "inhibition", "%", "<", 10),
    ("CNC(=O)Oc1cccc(CN(C)CCCCCCCOc2ccc3c(c2)O/C(=C\\c2ccccc2)C3=O)c1", "inhibition", "%", "=", 43.3),
    ("CNC(=O)Oc1cccc(CN(C)CCCOc2ccc3c(c2)O/C(=C\\c2cc(OC)c(OC)c(OC)c2)C3=O)c1", "inhibition", "%", "=", 29.2),
    ("CNC(=O)Oc1cccc(CN(C)CCCCCCCOc2ccc3c(c2)O/C(=C\\c2cc(OC)c(OC)c(OC)c2)C3=O)c1", "inhibition", "%", "=", 41),
    ("CNC(=O)Oc1cccc(CN(C)CCCCCCCOc2ccc3c(c2)C/C(=C\\c2cc(OC)c(OC)c(OC)c2)C3=O)c1", "inhibition", "%", "=", 32.8),
    ("CNC(=O)Oc1ccc2c(c1)[C@]1(C)CCN(C)[C@@H]1N2C", "inhibition", "%", "=", 30),
    ("CNC(=O)Oc1cccc(CN(C)CCCOc2ccc3c(c2)O/C(=C\\c2ccc4ccccc4c2)C3=O)c1", "inhibition", "%", "=", 35),
]
